Test system: α7 integrin (LacZ reporter in α7βgal+/− myoblasts)
Experiment: Myoblast α7+/LacZ integrin FDG assay (Burkin assay in myoblasts, 96-well)
Format: cell-based, mouse
Conditions: 20 uM; α7+/LacZ myoblasts, 96-well
Observable: Burkin Assay in Myoblasts, signal relative to DMSO

Exercise: Find the recorded Burkin Assay in Myoblasts, signal relative to DMSO belonging to `N/C(=N\OC(=O)c1cccc(C(F)(F)F)c1)c1cnccn1` and report it.
Solution: 1.075

Exercise: Consider the molecule shown here: `Cc1ccccc1S(=O)(=O)N1C[C@H]2CON(C)[C@H]2C[C@H]1c1cccc(-c2ccccc2)c1` What is its recorded Burkin Assay in Myoblasts, signal relative to DMSO?
Solution: 0.7581

Exercise: Please look up its Burkin Assay in Myoblasts, signal relative to DMSO: N#Cc1ccc(OCC(O)CS(=O)(=O)c2ccccc2)cc1 (stereo not drawn)
Solution: 0.8663

Exercise: Query (molecule): `Cn1cc(CN2CCC(C(=O)Nc3cccc(-c4cscn4)c3)CC2)cn1` ; field requested: Burkin Assay in Myoblasts, signal relative to DMSO
Solution: 0.6025

Exercise: Entry `N#Cc1ccc(Sc2nc3ccccc3[nH]2)cc1C#N` has what Burkin Assay in Myoblasts, signal relative to DMSO?
Solution: 1.004

Exercise: Return reported Burkin Assay in Myoblasts, signal relative to DMSO; argument: `O=C(CSc1nnc(COc2ccc(Br)cc2)o1)NC1CCCCC1`
Solution: 0.9203

Exercise: For `O=C(Nc1ccc(Oc2cccnc2)cc1)c1ccccc1Cl` , what is its reported Burkin Assay in Myoblasts, signal relative to DMSO?
Solution: 0.8985

Exercise: Report Burkin Assay in Myoblasts, signal relative to DMSO for `NS(=O)(=O)c1ccc(NC(=O)CN2CCc3ccccc32)cc1` please.
Solution: 0.8743

Exercise: Consider the molecule `CN(C)C1(CN=Cc2cc(Cl)cc([N+](=O)[O-])c2O)CCCCC1` and give its measured Burkin Assay in Myoblasts, signal relative to DMSO.
Solution: 0.8923

====

Tested on: β-galactosidase in CMV-LacZ C2C12 myoblasts
Assay: CMV-LacZ secondary screen in C2C12 myoblasts (β-Gal stabilizing assay)
Type: cell-based, mouse
Settings: 1 uM; SU9516 analogs, C2C12 CMV-LacZ, N=2
CMV-LACZ in Myoblasts, value relative to DMSO vs 1: less than gives 1; not less than gives -1.

Exercise: Identify whether the molecule `O=C1Nc2ccccc2/C1=C/c1ccnc2ccccc12` records CMV-LACZ in Myoblasts, value relative to DMSO below 1.
Solution: 1

Exercise: Please check: CMV-LACZ in Myoblasts, value relative to DMSO for `O=Nc1c(-c2c(O)[nH]c3cc(Br)ccc23)[nH]c2ccccc12` , strictly under 1 or not?
Solution: -1

Exercise: Threshold test, CMV-LACZ in Myoblasts, value relative to DMSO < 1: `CN1CCN(c2ccccc2/C=C2/C(=O)Nc3ccccc32)CC1`
Solution: -1

Exercise: Is 1 strictly greater than the molecule's reported CMV-LACZ in Myoblasts, value relative to DMSO? molecule: `Cc1ccc2c(c1)/C(=C/c1ccccc1)C(=O)N2`
Solution: 1

Exercise: Quick check: CMV-LACZ in Myoblasts, value relative to DMSO of `CCn1c(O)c(C(C#N)=C2N=c3ccccc3=N2)c2ccccc21` under 1?
Solution: 1

Exercise: Just wondering, is CMV-LACZ in Myoblasts, value relative to DMSO of Cc1[nH]c(/C=C2\C(=O)Nc3ccc(S(=O)(=O)Cc4c(Cl)cccc4Cl)cc32)c(C)c1C(=O)C1CCCN1CN1CCCC1 (centres unmarked) below 1?
Solution: -1

Exercise: In the record for `CCc1nc(/C=C2\C(=O)Nc3ccccc32)c[nH]1` , is CMV-LACZ in Myoblasts, value relative to DMSO less than 1?
Solution: -1

====

System: β-galactosidase in CMV-LacZ C2C12 myotubes
Experiment: CMV-LacZ secondary screen in C2C12 myotubes (β-Gal stabilizing assay)
Type: cell-based, mouse
Conditions: 1 uM; C2C12 CMV-LacZ myotubes; fold relative to DMSO
Kind request: treat 1 as inclusive, so CMV-LACZ in Myotubes, signal relative to DMSO at 1 or higher is MET, anything lower is NOT MET.

Exercise: Say whether `CCOC(=O)c1cc(-c2cccs2)nc2c1c(C)nn2-c1ccccn1` shows CMV-LACZ in Myotubes, signal relative to DMSO of 1 or more.
Solution: NOT MET

Exercise: State whether the measured CMV-LACZ in Myotubes, signal relative to DMSO reaches 1, counting equality as reaching it, for `CCCc1nnc(SCC(=O)NC2CCCC2)n1CCOC`
Solution: MET

Exercise: Kindly determine if CMV-LACZ in Myotubes, signal relative to DMSO recorded for `CCCCN(CC)Cc1ccc(CNC(=S)Nc2ccccc2F)o1` is above or exactly 1.
Solution: NOT MET

Exercise: Decide: is the reported value of CMV-LACZ in Myotubes, signal relative to DMSO for `Cc1cc(C)cc(OCC(=O)N/N=C/c2ccccn2)c1` equal to or greater than 1?
Solution: NOT MET

Exercise: Is reported CMV-LACZ in Myotubes, signal relative to DMSO greater than or equal to 1 here: O=CN1CCN(C(=O)CC(c2ccccc2)c2cc(Br)ccc2O)CC1 (stereo not drawn)
Solution: MET

Exercise: CMV-LACZ in Myotubes, signal relative to DMSO >= 1 for CC(C(=O)Nc1ccc(C#N)cc1)N(C)CC(=O)Nc1cccc(F)c1 (stereo not drawn) ?
Solution: MET

Exercise: Is reported CMV-LACZ in Myotubes, signal relative to DMSO greater than or equal to 1 here: CCOC(=O)C1(Cc2cccc(Cl)c2)CCCN(C(=O)CCSC)C1 (stereo not drawn)
Solution: MET

Exercise: // inclusive: CMV-LACZ in Myotubes, signal relative to DMSO at least 1? input: `Cc1cccc(NCC(=O)N/N=C\c2ccccn2)c1`
Solution: MET

Exercise: Reported CMV-LACZ in Myotubes, signal relative to DMSO reaches at least 1 for `CC1(C)Cc2c(c(N3CCOCC3)nc3sc(C(=O)Nc4ccccc4)c(N)c23)CO1` ?
Solution: MET

Exercise: Answer whether CMV-LACZ in Myotubes, signal relative to DMSO of `CC(=O)Nc1ccc(NC(=O)c2cc(=O)c3cc(C)cc(C)c3o2)cc1` is greater than or equal to 1.
Solution: NOT MET

Exercise: Threshold query (CMV-LACZ in Myotubes, signal relative to DMSO >= 1) on `COc1ccc(C(=O)Cn2nnc(-c3ccccc3NC(=O)c3ccco3)n2)cc1`
Solution: MET

Exercise: Textbook exercise: given the entry `CCCn1c(-c2cc(OC)c(OC)c(OC)c2)nc2c1c(=O)[nH]c(=O)n2Cc1ccccc1` , state whether its CMV-LACZ in Myotubes, signal relative to DMSO is greater than or equal to 1.
Solution: NOT MET

Exercise: Can COc1ccc(CNC(=O)C2CCCN(S(=O)(=O)c3c(C)noc3/C=C/N(C)C)C2)cc1 (stereo not drawn) be said to have CMV-LACZ in Myotubes, signal relative to DMSO at or above 1?
Solution: MET

Exercise: Dear colleague, could you confirm whether CC1CCCCC1NC(=O)CSc1nnc(COc2ccc(Cl)cc2)o1 (stereo not drawn) has CMV-LACZ in Myotubes, signal relative to DMSO at or above 1?
Solution: NOT MET

Exercise: Determine whether measured CMV-LACZ in Myotubes, signal relative to DMSO meets or exceeds 1 for `CCOc1ccccc1NC(=O)c1cccc2c1C(=O)N(C1CCCCC1)C2`
Solution: NOT MET

Exercise: Kindly determine if CMV-LACZ in Myotubes, signal relative to DMSO recorded for O=C(NCc1ccccc1)C(c1c(F)cccc1Cl)N(C(=O)c1csnn1)C1CC1 (stereo not drawn) is above or exactly 1.
Solution: NOT MET

====

Tested on: α7 integrin (LacZ reporter in α7+/LacZ myotubes)
Test: Myotube α7 integrin FDG assay (Burkin assay in myotubes, 96-well)
Type: cell-based, mouse
Details: 20 uM; SU9516 analogs, 96-well, N=3-6
Please respond with reported Burkin Assay in Myotubes, value relative to DMSO for every item in the list.
Just the number.

Exercise: Item under review: `CN1CCN(c2ccccc2/C=C2/C(=O)Nc3ccccc32)CC1` . Reported Burkin Assay in Myotubes, value relative to DMSO?
Solution: 0.8654

Exercise: Quick one: Burkin Assay in Myotubes, value relative to DMSO of `O=C1Nc2ccccc2/C1=C/c1ccnc2ccccc12` ?
Solution: 0.5653

Exercise: # Burkin Assay in Myotubes, value relative to DMSO lookup, item Cc1[nH]c(/C=C2\C(=O)Nc3ccc(S(=O)(=O)Cc4c(Cl)cccc4Cl)cc32)c(C)c1C(=O)C1CCCN1CN1CCCC1 (centres unmarked)
Solution: 0.652

Exercise: Which Burkin Assay in Myotubes, value relative to DMSO value belongs to `O=C1Nc2ccccc2/C1=C/c1ccc([N+](=O)[O-])cc1` ?
Solution: 0.754

Exercise: Requested read-out: Burkin Assay in Myotubes, value relative to DMSO. Entry: `O=C1Nc2ccccc2/C1=C\c1cccn1-c1ccc(OC(F)(F)F)cc1`
Solution: 0.8556
